From: ChEMBL document CHEMBL1145131

- ASSAY SUMMARY: Compound was tested in vitro for loss of compound after 2 hours exposure to hepatocytes of monkey at 5 uM concentration
- Assay type: ADME, cell-based, Hepatocyte
- STUDY CONDITIONS: simiiformes, read-out: Metabolism
MEASURED ATTRIBUTE: metabolised at 2 h, 5 µM (%)

[
  {
    "TEST SMILES": "CCOC(=O)/C=C/[C@H](C[C@@H]1CCNC1=O)NC(=O)[C@H](CC)n1cccc(NC(=O)c2cc(C)on2)c1=O",
    "UNIT DESCRIPTOR": "%",
    "ENDPOINT RESULT": 76
  }
]

----------
- Species on record: Canis familiaris
- ASSAY SUMMARY: Compound was tested for plasma protein binding of dog
- Type: ADME, organism-based, Canis lupus familiaris

[
  {
    "TEST SMILES": "CC[C@@H](C(=O)N[C@H](/C=C/C(=O)OCc1ccccc1)C[C@@H]1CCNC1=O)n1cccc(NC(=O)c2cc(C)on2)c1=O",
    "Free (%)": 20
  },
  {
    "TEST SMILES": "C#CC[C@@H](C(=O)N[C@H](/C=C/C(=O)OC1CCCC1)C[C@@H]1CCNC1=O)n1cccc(NC(=O)c2cc(C)on2)c1=O",
    "Free (%)": 20
  },
  {
    "TEST SMILES": "C#CC[C@@H](C(=O)N[C@H](/C=C/C(=O)OCc1ccccc1)C[C@@H]1CCNC1=O)n1cccc(NC(=O)c2cc(C)on2)c1=O",
    "Free (%)": 25
  },
  {
    "TEST SMILES": "Cc1cc(C(=O)Nc2cccn([C@@H](Cc3ccc(F)c(F)c3)C(=O)N[C@H](/C=C/C(=O)OC(C)C)C[C@@H]3CCNC3=O)c2=O)no1",
    "Free (%)": 19
  },
  {
    "TEST SMILES": "C#CC[C@@H](C(=O)N[C@H](/C=C/C(=O)OCC)C[C@@H]1CCNC1=O)n1cccc(NC(=O)c2cc(C)on2)c1=O",
    "Free (%)": 54
  },
  {
    "TEST SMILES": "CC[C@@H](C(=O)N[C@H](/C=C/C(=O)OC1CCC1)C[C@@H]1CCNC1=O)n1cccc(NC(=O)c2cc(C)on2)c1=O",
    "Free (%)": 42
  }
]

----------
- ASSAY SUMMARY: Compound was tested in vitro for loss of compound after 2 hours exposure to hepatocytes of monkey at 25 uM concentration
- Format: ADME, cell-based, Hepatocyte
- STUDY CONDITIONS: simiiformes, read-out: Metabolism
Here the recorded metabolised at 2 h, 25 µM is given for each entry.

[
  {
    "COMPOUND": "C#CC[C@@H](C(=O)N[C@H](/C=C/C(=O)OCC)C[C@@H]1CCNC1=O)n1cccc(NC(=O)c2cc(C)on2)c1=O [IMOCITRELVIR]",
    "metabolised at 2 h, 25 µM": "79%"
  },
  {
    "COMPOUND": "C#CC[C@@H](C(=O)N[C@H](/C=C/C(=O)OCc1ccccc1)C[C@@H]1CCNC1=O)n1cccc(NC(=O)c2cc(C)on2)c1=O",
    "metabolised at 2 h, 25 µM": "69%"
  }
]

----------
- ASSAY SUMMARY: Half-life upon exposure to human plasma
- Type: ADME, organism-based
Here the recorded half-life is given for each entry.
MEASURED ATTRIBUTE: half-life (h)

[
  {
    "TEST SMILES": "CCOC(=O)/C=C/[C@H](C[C@@H]1CCNC1=O)NC(=O)[C@H](CC)n1cccc(NC(=O)c2cc(C)on2)c1=O",
    "MEASURED ATTRIBUTE": "half-life",
    "UNIT DESCRIPTOR": "h",
    "ENDPOINT RESULT": 5.6
  },
  {
    "TEST SMILES": "CC[C@@H](C(=O)N[C@H](/C=C/C(=O)OCc1ccccc1)C[C@@H]1CCNC1=O)n1cccc(NC(=O)c2cc(C)on2)c1=O",
    "MEASURED ATTRIBUTE": "half-life",
    "UNIT DESCRIPTOR": "h",
    "ENDPOINT RESULT": 2.5
  },
  {
    "TEST SMILES": "C#CC[C@@H](C(=O)N[C@H](/C=C/C(=O)OCC)C[C@@H]1CCNC1=O)n1cccc(NC(=O)c2cc(C)on2)c1=O",
    "MEASURED ATTRIBUTE": "half-life",
    "UNIT DESCRIPTOR": "h",
    "ENDPOINT RESULT": 6.6
  },
  {
    "TEST SMILES": "Cc1cc(C(=O)Nc2cccn([C@@H](Cc3ccc(F)c(F)c3)C(=O)N[C@H](/C=C/C(=O)OC(C)C)C[C@@H]3CCNC3=O)c2=O)no1",
    "MEASURED ATTRIBUTE": "half-life",
    "UNIT DESCRIPTOR": "h",
    "ENDPOINT RESULT": 9.7
  },
  {
    "TEST SMILES": "CC[C@@H](C(=O)N[C@H](/C=C/C(=O)OC1CCC1)C[C@@H]1CCNC1=O)n1cccc(NC(=O)c2cc(C)on2)c1=O",
    "MEASURED ATTRIBUTE": "half-life",
    "UNIT DESCRIPTOR": "h",
    "ENDPOINT RESULT": 9.2
  },
  {
    "TEST SMILES": "C#CC[C@@H](C(=O)N[C@H](/C=C/C(=O)OC1CCCC1)C[C@@H]1CCNC1=O)n1cccc(NC(=O)c2cc(C)on2)c1=O",
    "MEASURED ATTRIBUTE": "half-life",
    "UNIT DESCRIPTOR": "h",
    "ENDPOINT RESULT": 12.5
  },
  {
    "TEST SMILES": "C#CC[C@@H](C(=O)N[C@H](/C=C/C(=O)OCc1ccccc1)C[C@@H]1CCNC1=O)n1cccc(NC(=O)c2cc(C)on2)c1=O",
    "MEASURED ATTRIBUTE": "half-life",
    "UNIT DESCRIPTOR": "h",
    "ENDPOINT RESULT": 4.3
  },
  {
    "TEST SMILES": "C#CC[C@@H](C(=O)N[C@H](/C=C/C(=O)OC1CCC1)C[C@@H]1CCNC1=O)n1cccc(NC(=O)c2cc(C)on2)c1=O",
    "MEASURED ATTRIBUTE": "half-life",
    "UNIT DESCRIPTOR": "h",
    "ENDPOINT RESULT": 3.3
  },
  {
    "TEST SMILES": "CCOC(=O)/C=C/[C@H](C[C@@H]1CCNC1=O)NC(=O)[C@H](Cc1ccc(F)c(F)c1)n1cccc(NC(=O)c2cc(C)on2)c1=O",
    "MEASURED ATTRIBUTE": "half-life",
    "UNIT DESCRIPTOR": "h",
    "ENDPOINT RESULT": 1.4
  }
]
